Tested on: Nakaseomyces glabratus
Test: Antifungal activity against Candida glabrata D10R after 48 hrs by broth macrodilution method
Format: functional
observable: MIC

compound | study.system | MIC
CCOC(=O)c1sc2ccccc2c1Nc1ccc(O)cc1O | Nakaseomyces glabratus | 25 µg/mL
CCOC(=O)c1sc2ccccc2c1Nc1ccc(F)cc1 | Nakaseomyces glabratus | > 200 µg/mL
CCOC(=O)c1sc2ccccc2c1Nc1ccc(OC)cc1 | Nakaseomyces glabratus | > 200 µg/mL
CCOC(=O)c1sc2ccccc2c1Nc1ccc(O)cc1 | Nakaseomyces glabratus | > 200 µg/mL
CCOC(=O)c1sc2ccccc2c1Nc1ccc(OC)cc1OC | Nakaseomyces glabratus | > 200 µg/mL

# value of MIC, Nakaseomyces glabratus, item OC(Cn1cncn1)(Cn1cncn1)c1ccc(F)cc1F = 32 µg/mL

Measured on Nakaseomyces glabratus, CCOC(=O)c1sc2ccccc2c1Nc1cccnc1 has a documented MIC of > 200 µg/mL

Nakaseomyces glabratus MIC of c1cncc(Nc2csc3ccccc23)c1 is 50 µg/mL
